Where do the numbers come from? From the supplement of paper PMC6555819.

Can you tell me PBM binding z-score for the items I'm about to list?
System: THRa:RXRa (NR concentration 90 nM, RXRa partner concentration 90 nM)
Assay: PBM binding z-score (relative to random genomic background probes); higher = stronger binding; sequences stand for … in GC…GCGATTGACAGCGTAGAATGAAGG
Give bare numbers.

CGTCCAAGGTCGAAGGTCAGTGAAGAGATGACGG 3.04
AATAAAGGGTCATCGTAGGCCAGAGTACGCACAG 4.49
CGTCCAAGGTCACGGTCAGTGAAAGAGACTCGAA 4.29

For every item in the list below, what is its measured PBM binding z-score?
1. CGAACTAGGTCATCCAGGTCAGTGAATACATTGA
2. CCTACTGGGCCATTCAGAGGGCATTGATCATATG
3. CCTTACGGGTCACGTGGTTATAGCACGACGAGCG

Response:
1. 4.21
2. 0.0655
3. 3.04

For every item in the list below, what is its measured PBM binding z-score?
1. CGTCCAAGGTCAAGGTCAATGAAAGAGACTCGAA
2. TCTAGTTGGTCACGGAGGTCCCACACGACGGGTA
3. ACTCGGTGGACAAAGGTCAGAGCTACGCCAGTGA
4. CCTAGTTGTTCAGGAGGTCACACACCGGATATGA
5. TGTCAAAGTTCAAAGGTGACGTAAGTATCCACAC
6. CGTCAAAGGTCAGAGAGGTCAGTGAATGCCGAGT

Response:
4.35
0.42
2.45
3.62
3.76
4.37
